- testDescription: Tmax in Swiss mouse plasma at 20 mg/kg, po by LC/MS/MS analysis
- Format: ADME, organism-based
valueKind: Tmax (min)
Give bare numbers, in min.

Query string: Recorded Tmax for `COC(=O)c1cc2cc(NCc3cc(NC(=O)c4cc(-n5cnc(C)c5)cc(C(F)(F)F)c4)ccc3C)cnc2[nH]1` , please?
Result string: 30

----------
- studySystem: Proto-oncogene tyrosine-protein kinase Src (Homo sapiens, UniProt P12931)
- Sequence (P12931 2-536 limits assumed): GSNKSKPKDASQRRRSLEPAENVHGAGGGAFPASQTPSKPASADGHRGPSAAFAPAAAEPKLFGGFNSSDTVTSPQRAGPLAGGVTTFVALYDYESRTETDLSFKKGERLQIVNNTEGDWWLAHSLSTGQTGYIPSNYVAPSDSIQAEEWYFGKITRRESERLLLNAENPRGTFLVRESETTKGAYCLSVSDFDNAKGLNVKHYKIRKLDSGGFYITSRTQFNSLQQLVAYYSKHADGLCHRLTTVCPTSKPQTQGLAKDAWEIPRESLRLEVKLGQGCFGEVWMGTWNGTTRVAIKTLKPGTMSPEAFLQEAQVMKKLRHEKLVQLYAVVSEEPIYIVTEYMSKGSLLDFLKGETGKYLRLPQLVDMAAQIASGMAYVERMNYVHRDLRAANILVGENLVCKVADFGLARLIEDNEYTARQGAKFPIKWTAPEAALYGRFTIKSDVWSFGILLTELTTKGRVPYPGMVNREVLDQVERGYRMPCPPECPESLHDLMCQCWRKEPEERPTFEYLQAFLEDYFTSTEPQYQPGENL
- testDescription: Inhibition of full length His-tagged human recombinant cSRC expressed in baculovirus using Fluorescein-Poly GT as substrate
valueKind: IC50 (nM)
Give bare numbers, in nM.

Query string: Item under review: `COC(=O)c1cc2cc(NCc3cc(NC(=O)c4cc(-n5cnc(C)c5)cc(C(F)(F)F)c4)ccc3C)cnc2[nH]1` . Reported IC50?
Result string: 40

----------
- studySystem: Platelet-derived growth factor receptor alpha (Homo sapiens, UniProt P16234)
- Sequence (P16234 whole entry): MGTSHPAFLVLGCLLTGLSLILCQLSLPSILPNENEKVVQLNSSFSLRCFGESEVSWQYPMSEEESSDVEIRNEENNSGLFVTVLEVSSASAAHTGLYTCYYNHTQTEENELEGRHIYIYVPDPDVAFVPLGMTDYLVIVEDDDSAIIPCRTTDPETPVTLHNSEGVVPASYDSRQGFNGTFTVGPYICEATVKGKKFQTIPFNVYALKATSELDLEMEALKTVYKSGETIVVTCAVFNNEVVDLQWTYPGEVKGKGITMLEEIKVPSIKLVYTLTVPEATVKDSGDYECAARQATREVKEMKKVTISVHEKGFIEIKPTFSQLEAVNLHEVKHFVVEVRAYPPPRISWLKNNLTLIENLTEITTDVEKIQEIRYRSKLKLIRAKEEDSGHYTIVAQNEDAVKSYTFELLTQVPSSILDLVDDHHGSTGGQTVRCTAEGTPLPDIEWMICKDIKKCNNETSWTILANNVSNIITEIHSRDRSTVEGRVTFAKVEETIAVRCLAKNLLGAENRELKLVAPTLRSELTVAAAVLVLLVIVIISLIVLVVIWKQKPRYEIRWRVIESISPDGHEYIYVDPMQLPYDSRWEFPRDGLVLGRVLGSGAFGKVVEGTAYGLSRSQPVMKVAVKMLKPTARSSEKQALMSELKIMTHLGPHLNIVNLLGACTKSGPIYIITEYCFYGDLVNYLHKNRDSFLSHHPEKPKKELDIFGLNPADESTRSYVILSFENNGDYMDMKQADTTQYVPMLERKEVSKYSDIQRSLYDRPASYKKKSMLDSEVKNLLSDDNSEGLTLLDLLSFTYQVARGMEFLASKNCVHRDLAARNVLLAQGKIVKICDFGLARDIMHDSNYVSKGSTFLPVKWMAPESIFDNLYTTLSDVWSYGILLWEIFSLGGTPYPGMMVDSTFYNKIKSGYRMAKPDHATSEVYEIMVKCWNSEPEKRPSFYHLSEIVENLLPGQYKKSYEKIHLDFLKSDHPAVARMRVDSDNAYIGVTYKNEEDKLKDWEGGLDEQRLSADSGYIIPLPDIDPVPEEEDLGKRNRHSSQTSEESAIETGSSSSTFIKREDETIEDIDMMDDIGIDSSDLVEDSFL
- testDescription: Inhibition of full length GST-tagged human recombinant PDGFRalpha expressed in baculovirus using Fluorescein-Poly GT as substrate at 100 nM
Classify by measured inhibition: 1 if it is equal to or exceeds 80%, -1 if it is smaller.

compound	answerLabel
COC(=O)c1cc2cc(/C=C/c3cc(NC(=O)c4ccc(CN5CCN(C)CC5)cc4)ccc3C)cnc2[nH]1	1
COC(=O)c1cc2cc(NCc3cc(NC(=O)c4cccc(Br)c4)ccc3C)cnc2[nH]1	1
COC(=O)c1cc2cc(NCc3cc(NC(=O)c4ccc(CN5CCN(C)CC5)cc4)ccc3C)cnc2[nH]1	1
Cc1cn(-c2cc(C(=O)Nc3ccc(C)c(CNc4cnc5[nH]c(C(=O)O)cc5c4)c3)cc(C(F)(F)F)c2)cn1	-1
Cc1ccc(NC(=O)c2ccc(CN3CCC(N(C)C)C3)c(C(F)(F)F)c2)cc1CNc1cnc2[nH]c(C(=O)O)cc2c1 (stereo not drawn)	-1

Query string: # bool: inhibition of `COC(=O)c1cc2cc(NCc3cc(NC(=O)c4ccc5nn[nH]c5c4)ccc3C)cnc2[nH]1` >= 80%
Result string: -1

Query string: Quick one: `COC(=O)c1cc2cc(NCc3cc(NC(=O)c4cccc(C(C)C)c4)ccc3C)cnc2[nH]1`
Result string: -1

Query string: Next entry: `COC(=O)c1cc2cc(NCc3cc(NC(=O)c4cccc(C(F)(F)F)c4)ccc3C)cnc2[nH]1`
Result string: -1

----------
- studySystem: Tyrosine-protein kinase Yes (Homo sapiens, UniProt P07947)
- Sequence (P07947 whole entry): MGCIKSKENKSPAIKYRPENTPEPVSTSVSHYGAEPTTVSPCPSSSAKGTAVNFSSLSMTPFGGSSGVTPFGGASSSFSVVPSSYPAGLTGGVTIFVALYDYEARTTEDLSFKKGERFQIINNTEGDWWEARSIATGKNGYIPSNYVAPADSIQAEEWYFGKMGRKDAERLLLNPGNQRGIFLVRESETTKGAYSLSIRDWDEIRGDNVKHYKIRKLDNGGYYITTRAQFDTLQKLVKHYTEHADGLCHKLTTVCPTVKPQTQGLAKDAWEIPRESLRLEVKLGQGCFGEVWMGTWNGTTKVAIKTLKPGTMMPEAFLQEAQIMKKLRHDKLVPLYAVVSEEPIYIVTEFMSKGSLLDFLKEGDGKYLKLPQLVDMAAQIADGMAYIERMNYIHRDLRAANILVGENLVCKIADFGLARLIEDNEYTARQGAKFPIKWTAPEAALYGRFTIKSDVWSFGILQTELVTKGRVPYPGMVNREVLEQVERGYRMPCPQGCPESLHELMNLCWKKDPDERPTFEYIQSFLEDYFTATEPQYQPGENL
- testDescription: Inhibition of GST-tagged full length human recombinant YES expressed in baculovirus using Fluorescein-Poly GT as substrate
valueKind: IC50 (µM)
Numbers only, in µM.

Query string: Return reported IC50; argument: `COC(=O)c1cc2cc(NCc3cc(NC(=O)c4cc(-n5cnc(C)c5)cc(C(F)(F)F)c4)ccc3C)cnc2[nH]1`
Result string: 0.044

----------
- studySystem: Serine/threonine-protein kinase B-raf (Homo sapiens) (UniProt P15056)
- Sequence (P15056 whole entry): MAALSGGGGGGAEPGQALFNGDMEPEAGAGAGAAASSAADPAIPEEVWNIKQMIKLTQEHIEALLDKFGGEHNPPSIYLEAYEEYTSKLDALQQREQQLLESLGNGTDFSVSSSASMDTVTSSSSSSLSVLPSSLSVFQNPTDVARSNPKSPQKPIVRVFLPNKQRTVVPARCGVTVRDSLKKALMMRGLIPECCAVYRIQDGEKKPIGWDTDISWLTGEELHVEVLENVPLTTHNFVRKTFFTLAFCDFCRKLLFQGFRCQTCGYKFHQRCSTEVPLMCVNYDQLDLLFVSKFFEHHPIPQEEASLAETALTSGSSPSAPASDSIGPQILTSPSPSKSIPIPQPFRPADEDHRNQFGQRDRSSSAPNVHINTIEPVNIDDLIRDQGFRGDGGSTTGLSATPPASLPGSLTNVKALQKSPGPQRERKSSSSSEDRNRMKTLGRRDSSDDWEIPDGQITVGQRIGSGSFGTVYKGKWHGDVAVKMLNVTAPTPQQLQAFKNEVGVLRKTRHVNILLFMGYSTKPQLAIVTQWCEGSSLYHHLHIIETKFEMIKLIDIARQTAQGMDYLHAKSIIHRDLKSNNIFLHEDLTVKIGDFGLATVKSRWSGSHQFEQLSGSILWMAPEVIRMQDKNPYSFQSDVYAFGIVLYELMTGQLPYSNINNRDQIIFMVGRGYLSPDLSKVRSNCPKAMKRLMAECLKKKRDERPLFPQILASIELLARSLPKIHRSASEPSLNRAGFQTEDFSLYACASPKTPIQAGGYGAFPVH
- testDescription: Inhibition of full length GST-tagged human recombinant BRAF expressed in baculovirus using Fluorescein-MAP2K1 as substrate at 100 nM
Labels assigned by inhibition range: bin 0 = under 20%, bin 1 = from 20% up to 60%, bin 2 = 60% and over

compound	studySystem	answerLabel
COC(=O)c1cc2cc(NCc3cc(NC(=O)c4ccc(CN5CCC(N(C)C)C5)c(C(F)(F)F)c4)ccc3C)cnc2[nH]1 (stereo not given)	Serine/threonine-protein kinase B-raf (Homo sapiens) (UniProt P15056)	bin 2
COC(=O)c1cc2cc(NCc3cc(NC(=O)c4ccnc(C(F)(F)F)c4)ccc3C)cnc2[nH]1	Serine/threonine-protein kinase B-raf (Homo sapiens) (UniProt P15056)	bin 0
COC(=O)c1cc2cc(NCc3cc(NC(=O)c4cccc(Br)c4)ccc3C)cnc2[nH]1	Serine/threonine-protein kinase B-raf (Homo sapiens) (UniProt P15056)	bin 2
COC(=O)c1cc2cc(NCc3cc(NC(=O)c4cccc(C(C)C)c4)ccc3C)cnc2[nH]1	Serine/threonine-protein kinase B-raf (Homo sapiens) (UniProt P15056)	bin 1
Cc1ccc(NC(=O)c2ccc(CN3CCN(C)CC3)cc2)cc1CNc1cnc2[nH]c(C(=O)O)cc2c1	Serine/threonine-protein kinase B-raf (Homo sapiens) (UniProt P15056)	bin 0
COC(=O)c1cc2cc(NCc3cc(NC(=O)c4cncc(C(F)(F)F)c4)ccc3C)cnc2[nH]1	Serine/threonine-protein kinase B-raf (Homo sapiens) (UniProt P15056)	bin 2
CC(=O)c1cc2cc(NCc3cc(NC(=O)c4ccc(CN5CCC(N(C)C)C5)c(C(F)(F)F)c4)ccc3C)cnc2[nH]1 (stereo not given)	Serine/threonine-protein kinase B-raf (Homo sapiens) (UniProt P15056)	bin 1
COC(=O)c1cc2cc(COc3cc(NC(=O)c4ccc(CN5CCN(C)CC5)cc4)ccc3C)cnc2[nH]1	Serine/threonine-protein kinase B-raf (Homo sapiens) (UniProt P15056)	bin 0
COC(=O)c1cc2cc(NCc3cc(NC(=O)c4cccc(C(F)(F)F)c4)ccc3C)cnc2[nH]1	Serine/threonine-protein kinase B-raf (Homo sapiens) (UniProt P15056)	bin 1
COC(=O)c1cc2cc(NCc3cc(NC(=O)c4cc(-n5cnc(C)c5)cc(C(F)(F)F)c4)ccc3C)cnc2[nH]1	Serine/threonine-protein kinase B-raf (Homo sapiens) (UniProt P15056)	bin 1

Query string: // bin(item) where item = `CNC(=O)c1cc2cc(NCc3cc(NC(=O)c4ccc(CN5CCN(C)CC5)cc4)ccc3C)cnc2[nH]1`
Result string: bin 2

Query string: What about `COC(=O)c1cc2cc(NCc3cc(NC(=O)c4ccc(Cl)c(C(F)(F)F)c4)ccc3C)cnc2[nH]1` ?
Result string: bin 0

Query string: Field entry: `CC(=O)c1cc2cc(NCc3cc(NC(=O)c4ccc(CN5CCN(C)CC5)cc4)ccc3C)cnc2[nH]1`
Result string: bin 1

Query string: Next compound: `COC(=O)c1cc2cc(NCc3cc(NC(=O)c4ccccc4OC)ccc3C)cnc2[nH]1`
Result string: bin 2
